Attribution: patent US6852744B2

IC50 reference
molecular target: monkey chymase (Macaca fascicularis, UniProt P56435); construct: chymase was extracted from homogenized monkey cheek pouch and stomach; from tissue; host or cells: monkey cheek pouch and stomach; assay: Monkey chymase inhibitory activity (in vitro, angiotensin I substrate); type: biochemical; conditions: chymase purified from monkey cheek pouch and stomach; substrate angiotensin I; 37° C.; read-out: Monkey Chymase Inhibition (IC50:nM)
Sequence (P56435 22-247): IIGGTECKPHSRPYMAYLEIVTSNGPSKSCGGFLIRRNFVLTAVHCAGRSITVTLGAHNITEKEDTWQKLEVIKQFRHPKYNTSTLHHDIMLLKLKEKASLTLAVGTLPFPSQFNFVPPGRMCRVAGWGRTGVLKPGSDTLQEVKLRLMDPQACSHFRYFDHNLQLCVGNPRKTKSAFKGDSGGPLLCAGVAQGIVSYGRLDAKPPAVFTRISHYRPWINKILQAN
Quick note: give the figure in nM, leave out the unit.

molecule="Cc1noc(C)c1C(=O)N[C@H](C(=O)N1CCC[C@H]1C(=O)NC(Cc1ccc(Cl)cc1)C(=O)C(F)(F)F)C(C)C (stereo partly shown) [I-A-43]" recorded_result=140
molecule="Cc1noc(C)c1C(=O)N[C@H](C(=O)N1CCC[C@H]1C(=O)NC(Cc1ccccc1)C(=O)C(F)(F)F)C(C)C (stereo partly shown)" recorded_result=44
molecule="Cc1noc(C)c1C(=O)N[C@H](C(=O)N1CCC[C@H]1C(=O)NC(Cc1ccc(I)cc1)C(=O)C(F)(F)F)C(C)C (stereo partly shown)" recorded_result=130
molecule=Cc1noc(C)c1C(=O)N[C@@H](C)C(=O)N1CCC[C@H]1C(=O)N[C@@H](Cc1csc2ccccc12)C(=O)C(F)(F)F recorded_result=16
molecule="CC(C)[C@H](NC(=O)c1ccsc1)C(=O)N1CCC[C@H]1C(=O)NC(Cc1csc2ccccc12)C(=O)C(F)(F)F (stereo partly shown)" recorded_result=160

Which measured IC50 value corresponds to Cc1nnsc1C(=O)N[C@H](C(=O)N1CCC[C@H]1C(=O)NC(Cc1ccccc1)C(=O)C(F)(F)F)C(C)C (stereo partly shown) ?
50

Which measured IC50 value corresponds to Cc1ccccc1CC(NC(=O)[C@@H]1CCCN1C(=O)[C@@H](NC(=O)c1c(C)noc1C)C(C)C)C(=O)C(F)(F)F (stereo partly shown) ?
73

Which measured IC50 value corresponds to CC(C)[C@H](NC(=O)CN1CCN(CC(=O)O)C1=O)C(=O)N1CCC[C@H]1C(=O)NC(Cc1ccc2ccccc2c1)C(=O)C(F)(F)F (stereo partly shown) ?
61

Which measured IC50 value corresponds to Cc1noc(C)c1C(=O)N[C@H](C(=O)N1CCC[C@H]1C(=O)NC(Cc1ccc(Cl)cc1)C(=O)C(F)(F)F)C(C)C (stereo partly shown) [I-A-29] ?
57

Which measured IC50 value corresponds to Cc1noc(C)c1C(=O)N[C@H](C(=O)N1CCC[C@H]1C(=O)NC(Cc1coc2ccccc12)C(=O)C(F)(F)F)C(C)C (stereo partly shown) ?
61
